Value source: PubChem BioAssay (NCI)

Provide the reported growth of each item.
- Tested on: SK-MEL-2 melanoma
- methodNotes: NCI-60 one-dose screen, 48 h (100 = growth as untreated, 0 = no growth, -100 = all killed)
- experimentalSetup: 10 µM unless noted
Compounds without any hit were thinned out: in the full panel of roughly 83,000, 20% have a hit.
Field: numeric (%). Do not append units.

Form field: reported growth of CC1c2ccccc2-c2ccccc2N1C (stereo not given)
101

Tell me the measured growth of CCOc1cc(/C=C/C(=O)CC(=O)/C=C/c2ccc(OC(=O)CNCCN(CC)CC)c(OCC)c2)ccc1OC(=O)CNCCN(CC)CC , please.
4.43

Recorded growth of CN(C)CCCN=c1cc2c(=O)n(CCCN(C)C)c(=O)c3c(NCCCN(C)C)cc4c(O)n(CCCN(C)C)c(=O)c1c4c3-2 , please.
-9.31

Entry COc1ccc(NC(=O)[C@@H]2C[C@H]2c2ccccc2)c(C(N)=O)c1 : reported growth = ?
89.9

Please give the measured growth for this compound: Cc1cc(C)nc(NS(=O)(=O)c2ccc(Nc3nc4nc(SCc5ccccc5)nc(-c5ccc(O)cc5)c4c(=O)[nH]3)cc2)n1
92

###

- Test system: COLO 205 colon
- methodNotes: NCI-60 one-dose screen, 48 h (100 = growth as untreated, 0 = no growth, -100 = all killed)
- experimentalSetup: 10 µM unless noted
The panel holds about 83,000 compounds, 20% with a hit somewhere; the sample as a whole holds those more often. Calls of active or inactive are those of the source. The calls were made as follows: active = growth percent below 10; inactive = the rest.
assayEndpoint: growth

Name the reported growth value associated with the compound O=Cc1ccccc1C(=O)O
112% (inactive)

Find the recorded growth belonging to Cn1c(N2N=C(c3ccc(Cl)cc3)CC2c2ccccc2)nc(-c2ccccc2)c(C#N)c1=O (stereo not given) and report it.
99.4% (inactive)

Given [N-]=[N+]=NCc1cccc(/C(O)=C/C(=O)C(=O)O)c1 , state its recorded growth.
99.6% (inactive)

I am curious: what growth value has been reported for COC(=O)CC1=C(c2ccc([N+](=O)[O-])cc2)CCC1=O ?
98.2% (inactive)

Please look up its growth: COc1ccc2c(c1)CC[C@@H]1[C@@H]2CC[C@]2(C)[C@@H](O)C(=O)C[C@@H]12
102% (inactive)

State the recorded growth for this entry: CC[C@H]1CN2CCc3cc(OC)c(OC)cc3C2C[C@@H]1CC1NCCc2cc(OC)c(OC)cc21 (stereo not given in full)
-66.1% (active)

// lookup growth for O=C1CSC(c2ccccc2O)N1c1nnc(Cn2ccnc2)o1 (stereo not given)
92.6% (inactive)

For the compound shown here, CCOC(=O)Nc1cc(-c2ccc(C)c(NS(C)(=O)=O)c2)nn2c(C)nnc12 , give the reported growth.
3.41% (active)

What growth value was documented for this compound, CNCCCn1c2c(c3ccc(F)cc3c1=O)C(=O)c1cc(OC)cnc1-2 ?
-33.1% (active)

Form field: reported growth of c1ccc(N2c3nc4ccccc4cc3Sc3cc4ccccc4nc32)nc1
141% (inactive)

Item under review: COc1cc2c(cc1OC)C(=O)/C(=C/c1cccc(OCC(=O)c3ccccc3)c1)C2 . Reported growth?
119% (inactive)

// growth lookup, key: C[C@]12CCC(=O)C=C1CC[C@H]1[C@@H]3C[C@@H](O)[C@](O)(C(=O)CO)[C@@]3(C)C[C@H](O)[C@@]12F
103% (inactive)

If you can, please state the reported growth value of CCOC(=O)OCC(=O)[C@@]1(O)CC[C@H]2[C@@H]3CCC4=CC(=O)CC[C@]4(C)[C@H]3[C@@H](O)C[C@@]21C .
104% (inactive)

Find the recorded growth belonging to C[C@@H]1C[C@@H]([C@@H](CC2CC(=O)NC(=O)C2)OC(=O)CC(=O)c2ccccc2)C(=O)[C@@H](C)C1 and report it.
10.2% (inactive)

State the recorded growth for this entry: Nc1nc2c(nnn2Cc2ccc(Cl)c(Cl)c2)c(=O)[nH]1
98.5% (inactive)

// lookup growth for BrC1CC(Br)c2c1c1c(c3c2C(Br)CC3Br)C(Br)CC1Br (stereo not given)
105% (inactive)

Which growth reading was recorded for the compound O=[N+]([O-])c1ccc(NS(=O)(=O)c2ccc(Cl)c(Cl)c2)cc1 ?
122% (inactive)

For the compound shown here, CC[C@@H](c1ccc(O)c(O)c1)[C@@H](CC)c1ccc(O)c(O)c1 , give the reported growth.
9.38% (active)

I would be grateful if you could share the reported growth for COc1ccc2c(c1)c(CC(=O)[Se]C)c(C)n2C(=O)c1ccc(Cl)cc1 .
50.1% (inactive)

Entry under review: O=C1c2cccc3c([N+](=O)[O-])ccc(c23)C(=O)N1CCCCl . Reported growth?
-80.4% [100 µM] (active)

###

- Test system: CAKI-1 renal
- methodNotes: NCI-60 one-dose screen, 48 h (100 = growth as untreated, 0 = no growth, -100 = all killed)
- experimentalSetup: 10 µM unless noted
The panel holds about 83,000 compounds, 20% with a hit somewhere; the sample as a whole holds those more often.
Label 1.0 when growth is at or above 80%; anything below gets 0.0.

Check this molecule for growth at or above 80%: CCSc1nc(-c2cccs2)n2nc(-c3ccco3)cc2n1
1.0

API: above_or_equal(metric=growth, cutoff=80%) for item CC(=O)/C(=C/c1ccc(Cl)cc1)C(=O)c1ccccc1
1.0

Does the reported growth for COc1cc(/C=C/c2cc(/C=C/c3ccc(O)c(OC)c3)n(C(=O)Cc3ccccc3)n2)ccc1O fall at or above the 80% mark?
0.0

Does growth meet or surpass 80% for CC(C)N(Cc1ccccc1)c1c(S)ssc1=S ?
0.0

Has NS(=O)(=O)N(c1cc(C(F)(F)F)cc(C(F)(F)F)c1)C1CCN(Cc2ccc(C(F)(F)F)cc2)CC1 a recorded growth greater than or equal to 80%?
0.0

Decide: growth of c1ccc(Nc2ccc(Nc3nc(-c4ccccc4)nc4ccccc34)cc2)cc1 >= 80%?
0.0

Evaluate CCOc1cc(/C=C/C(=O)C(C(=O)/C=C/c2ccc(OC(=O)CNc3nnc(C)s3)c(OCC)c2)C(=O)CNc2nnc(C)s2)ccc1OC(=O)CNc1nnc(C)s1 : growth at minimum 80%?
0.0

Reported growth at or above 80%? O=c1[nH]c(SCc2ccccc2)nc2nc(Nc3ccc(NC(=S)Nc4ccccc4)cc3)nc(-c3ccc(O)cc3O)c12
1.0

Check the entry COc1cc2c(cc1OC)C(=O)/C(=C/c1cccc(OCC(=O)c3ccccc3)c1)C2 : does growth equal or exceed 80%?
1.0

Decide: growth of Cc1cn(C(C=O)OC(C=O)CO)c(=O)[nH]c1=O (stereo not given) >= 80%?
1.0

Does the molecule CCSc1nc(Nc2ccc(S(=O)(=O)Nc3ccon3)cc2)c(C#N)c(-c2cccc(Br)c2)n1 have recorded growth that is 80% or more?
1.0

Is it the case that COP(=O)(OC)C(c1ccccc1)(c1ccccc1)c1ccccc1 has growth reaching or exceeding 80%?
1.0

Quick check: does O=C(N/N=C/c1cccc(O)c1)c1ccc(C(F)(F)F)nc1Nc1cccc(C(F)(F)F)c1 have growth greater than or equal to 80%?
0.0

Does the reported growth for O=C1NC(=S)S/C1=C\c1cc(Br)ccc1O fall at or above the 80% mark?
1.0

Entry O=c1ncc(-c2ccc(C(F)(F)F)cc2)c(NC2CCCCCC2)[nH]1 : is its growth no less than 80%?
1.0

Tell me whether growth is at least 80% here: Cc1cc(C)nc(NS(=O)(=O)c2ccc(Nc3nc4nc(SCc5ccccc5)nc(-c5ccc(O)cc5)c4c(=O)[nH]3)cc2)n1
1.0

Record CCCn1c(N)c(C(=O)CNc2ccc(I)cc2)c(=O)[nH]c1=O ; criterion: growth no lower than 80%. Met?
0.0

Is growth at least 80%? Consider Clc1ccc2[nH]cc(-c3cncn3CCc3ccccc3)c2c1
0.0

###

- System: PC-3 prostate
- methodNotes: NCI-60 one-dose screen, 48 h
- experimentalSetup: 10 µM unless noted
The panel holds about 83,000 compounds, 20% with a hit somewhere; the sample as a whole holds those more often. Calls of active or inactive are those of the source. How the source made its calls: active means growth percent below 10; inactive means the rest.
Just give me one of these, please: active, inactive

Assay result, entry COC(=O)C1(NC(=O)CNC(=O)OCc2ccccc2)CCCC1 — outcome?
inactive

Per the assay record, what outcome was assigned to O=C(Nc1nc2ccc(OC(F)(F)F)cc2s1)c1ccc(F)cc1 ?
inactive

I'd appreciate the recorded outcome for O=C(COc1cccc(/C=C2\Cc3ccccc3C2=O)c1)c1ccc(Cl)cc1 from this test.
inactive

# fetch the recorded call for COc1ccc2c(c1)[n+](=O)c(/C=C/C(=O)c1cc(OC)c(OC)c(OC)c1)c(C)n2[O-] here
inactive

What did this assay record as the result for CCCCCc1c(C)[nH]c(/C=C2\N=C(c3ccc[nH]3)C=C2Oc2ccccc2)c1C ?
active

###

- Test system: MDA-MB-231 breast
- methodNotes: NCI-60 one-dose screen, 48 h
- experimentalSetup: 10 µM unless noted
Compounds without any hit were thinned out: in the full panel of roughly 83,000, 20% have a hit. The source made the active and inactive calls. Rule for the calls: active = growth percent below 10; inactive = the rest.
The categories you may choose from are YES for active, NO for inactive

Could you check what this test reported for O=C(CSc1ncc(-c2ccccc2)n1-c1ccccc1)Nc1ccc(-c2nc3ccccc3s2)cc1 ?
NO

Would you mind telling me which call this test gave O=c1oc2c(cc1-c1ccc([N+](=O)[O-])cc1)C(O)Oc1ccccc1-2 (centres undefined) ?
NO

Name the outcome recorded for O=CNc1ccc2c(c1)Cc1cc([N+](=O)[O-])ccc1-2 in the assay.
NO

Fill in: this test's call for CCOc1cc(/C=C/C(=O)C(C(=O)/C=C/c2ccc(OC(=O)CNc3nnc(C)s3)c(OCC)c2)C(=O)CNc2nnc(C)s2)ccc1OC(=O)CNc1nnc(C)s1 is ___
YES
